Numbers sourced from PubChem BioAssay (EPA / NIEHS).

Protocol text: CCTE_Shafer_MEA_dev_network_spike_peak: CCTE's Neural Network Formation Assay for Mean Number of Electrodes in Network Spike, Shafer Lab (AID 2284049)
Activity calls are given as the source filed them. Rule for the calls: active = hit-call score of the fitted dose curve at least 0.9, where 1 is the maximum; inactive = score below 0.9.
// one of active, inactive, no free text

OC(O)C(F)(F)C(F)(F)F = inactive
O=C(O)C(F)(F)C(F)(F)C(F)(F)OC(F)(F)F = inactive
OCC(O)CC(F)(F)C(F)(F)C(F)(F)C(F)(F)F (stereo not given) = inactive

Ask | Any idea what this test logged for OCC(F)(F)C(F)(F)C(F)(F)CO ?
Reply | inactive

Ask | Any idea what this test logged for C=CC(=O)OCC(F)(F)C(F)(F)C(F)(F)COC(=O)C=C ?
Reply | active

Ask | Any idea what this test logged for OCCCCC(F)(F)C(F)(F)C(F)(F)C(F)(F)F ?
Reply | inactive

Ask | Any idea what this test logged for OCC(F)(F)C(F)(F)C(F)(F)C(F)(F)C(F)(F)C(F)(F)C(F)(F)C(F)(F)CO ?
Reply | active

Ask | Any idea what this test logged for NC(=O)C(F)(F)C(F)(F)C(F)(F)F ?
Reply | inactive

Ask | Any idea what this test logged for CCN(CCO)S(=O)(=O)C(F)(F)C(F)(F)C(F)(F)C(F)(F)C(F)(F)C(F)(F)C(F)(F)C(F)(F)F ?
Reply | inactive

Ask | Any idea what this test logged for NC(=O)C(F)(F)C(F)(F)C(F)(F)C(F)(F)C(N)=O ?
Reply | inactive

Ask | Any idea what this test logged for FC(F)(F)C(F)(F)C(F)(F)C(F)(F)C(F)(F)C(F)(F)C(F)(F)CCI ?
Reply | inactive

Ask | Any idea what this test logged for O=S(=O)(O)CCC(F)(F)C(F)(F)C(F)(F)C(F)(F)C(F)(F)C(F)(F)C(F)(F)C(F)(F)F ?
Reply | inactive

Ask | Any idea what this test logged for CO[Si](C)(CCC(F)(F)C(F)(F)C(F)(F)C(F)(F)C(F)(F)C(F)(F)F)OC ?
Reply | inactive

Ask | Any idea what this test logged for CNS(=O)(=O)C(F)(F)C(F)(F)C(F)(F)C(F)(F)C(F)(F)C(F)(F)C(F)(F)C(F)(F)F ?
Reply | inactive

Ask | Any idea what this test logged for NC(=O)C(F)(F)C(F)(F)C(F)(F)C(F)F ?
Reply | inactive
